- tested system: memapsin 2 (Homo sapiens)
- assay text: Inhibition of memapsin 2 beta-secretase activity toward fluorogenic substrate FS-2
- Format: biochemical
- test settings: pH 4, 37° C., 20 minutes pre-incubation, fluorogenic substrate FS-2, tight-binding model; read-out: M2 Ki
endpoint name: Ki

>>> endpoint_result("COCCOCCOC(=O)C[C@H](NC(=O)OCc1nc(C)oc1C)C(=O)N[C@@H](CC(C)C)[C@@H](O)C[C@@H](C)C(=O)N[C@H](C(=O)NCC(C)C)C(C)C")
"< 100 nM"
>>> endpoint_result("CC[C@@H](Cn1nc(C)cc1C)C(=O)N[C@@H](CC(N)=O)C(=O)N[C@@H](CC(C)C)[C@@H](O)C[C@@H](C)C(=O)N[C@H](C(=O)NCC(C)C)C(C)C")
"100 to 600 nM"
>>> endpoint_result("Cc1csc(C[C@H](C)C(=O)N[C@@H](CNC(=O)OC(C)(C)C)C(=O)N[C@@H](CC(C)C)[C@@H](O)C[C@@H](C)C(=O)N[C@H](C(=O)NCC(C)C)C(C)C)n1")
"< 100 nM"

---

- tested system: memapsin 2 (Homo sapiens, UniProt P56817)
- Sequence (P56817 46-501): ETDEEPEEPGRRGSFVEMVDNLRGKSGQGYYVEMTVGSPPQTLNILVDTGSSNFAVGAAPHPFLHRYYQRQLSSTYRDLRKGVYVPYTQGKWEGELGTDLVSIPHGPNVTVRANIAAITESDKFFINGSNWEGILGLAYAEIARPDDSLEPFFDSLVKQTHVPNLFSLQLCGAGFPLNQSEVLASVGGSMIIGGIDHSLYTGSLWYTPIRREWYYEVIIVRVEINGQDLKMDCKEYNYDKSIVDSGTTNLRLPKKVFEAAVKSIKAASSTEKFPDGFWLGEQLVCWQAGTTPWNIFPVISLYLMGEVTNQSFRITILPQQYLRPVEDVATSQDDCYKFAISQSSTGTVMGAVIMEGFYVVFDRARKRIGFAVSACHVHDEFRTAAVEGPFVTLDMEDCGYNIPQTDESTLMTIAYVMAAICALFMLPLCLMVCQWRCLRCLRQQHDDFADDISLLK
endpoint name: Ki

>>> endpoint_result("COCCOC(=O)NC[C@H](NC(=O)[C@@H](C)Cc1nc(C)cs1)C(=O)N[C@@H](CC(C)C)[C@@H](O)C[C@@H](C)C(=O)N[C@H](C(=O)NCC(C)C)C(C)C")
"< 100 nM"
>>> endpoint_result("Cc1csc(COC(=O)N[C@@H](CNC(=O)OC(C)(C)C)C(=O)N[C@@H](CC(C)C)[C@@H](O)C[C@@H](C)C(=O)N[C@H](C(=O)NCC(C)C)C(C)C)n1")
"100 to 600 nM"
>>> endpoint_result("Cc1csc(C[C@H](C)C(=O)N[C@@H](CC(=O)O)C(=O)N[C@@H](CC(C)C)[C@@H](O)C[C@@H](C)C(=O)N[C@H](C(=O)NCC(C)C)C(C)C)n1")
"100 to 600 nM"

---

Reported IC50 values for a set of molecules
- Test system: Aβ production
- assay text: Cellular Aβ IC50 determination (Aβ40 sandwich ELISA)
- Assay type: cell-based
- test settings: Cricetulus griseus; Aβ40, Chinese hamster ovary cells over-expressing human APP695 with London and Swedish mutations, 24 h incubation
endpoint name: IC50

>>> endpoint_result("Cc1csc(C[C@H](C)C(=O)N[C@@H](CNC(=O)O[C@@H]2CCOC2)C(=O)N[C@@H](CC(C)C)[C@@H](O)C[C@@H](C)C(=O)N[C@H](C(=O)NCC(C)C)C(C)C)n1")
"< 6 µM"
>>> endpoint_result("Cc1csc(COC(=O)N[C@@H](CNC(=O)O[C@H]2CCOC2)C(=O)N[C@@H](CC(C)C)[C@@H](O)C[C@@H](C)C(=O)N[C@H](C(=O)NCC(C)C)C(C)C)n1")
"6 to 100 µM"
>>> endpoint_result("COC(Cn1nc(C)cc1C)C(=O)N[C@@H](CNC(=O)OC(C)(C)C)C(=O)N[C@@H](CC(C)C)[C@@H](O)C[C@@H](C)C(=O)N[C@H](C(=O)NCC(C)C)C(C)C (some centres unmarked)")
"> 100 µM"
>>> endpoint_result("Cc1cc(C)n(CC(N=[N+]=[N-])C(=O)N[C@@H](CNC(=O)OC(C)(C)C)C(=O)N[C@@H](CC(C)C)[C@@H](O)C[C@@H](C)C(=O)N[C@H](C(=O)NCC(C)C)C(C)C)n1 (some centres unmarked)")
"6 to 100 µM"
>>> endpoint_result("CC[C@@H](Cn1nc(C)cc1C)C(=O)N[C@@H](CNC(=O)OC(C)(C)C)C(=O)N[C@@H](CC(C)C)[C@@H](O)C[C@@H](C)C(=O)N[C@H](C(=O)NCC(C)C)C(C)C")
"< 6 µM"
>>> endpoint_result("CC[C@@H](Cc1nc(C)cs1)C(=O)N[C@@H](CNC(=O)OC(C)(C)C)C(=O)N[C@@H](CC(C)C)[C@@H](O)C[C@@H](C)C(=O)N[C@H](C(=O)NCC(C)C)C(C)C")
"< 6 µM"
>>> endpoint_result("COC(=O)NC[C@H](NC(=O)[C@@H](C)Cc1nc(C)cs1)C(=O)N[C@@H](CC(C)C)[C@@H](O)C[C@@H](C)C(=O)N[C@H](C(=O)NCC(C)C)C(C)C")
"< 6 µM"
>>> endpoint_result("COC(=O)NC[C@H](NC(=O)OCc1nc(C)cs1)C(=O)N[C@@H](CC(C)C)[C@@H](O)C[C@@H](C)C(=O)N[C@H](C(=O)NCC(C)C)C(C)C")
"< 6 µM"
>>> endpoint_result("CCC(Cn1nc(C)cc1C)C(=O)N[C@@H](CNC(=O)OCCF)C(=O)N[C@@H](CC(C)C)[C@@H](O)C[C@@H](C)C(=O)N[C@H](C(=O)NCC(C)C)C(C)C (some centres unmarked)")
"6 to 100 µM"
>>> endpoint_result("CC[C@@H](Cn1nc(C)cc1C)C(=O)N[C@@H](CNC(=O)OC(C)(C)C)C(=O)N[C@@H](CC(C)C)[C@@H](O)C[C@@H](C)C(=O)N[C@H](C(=O)NCc1ccncc1)C(C)C")
"< 6 µM"
>>> endpoint_result("Cc1cc(C)n(CC(N)C(=O)N[C@@H](CNC(=O)OC(C)(C)C)C(=O)N[C@@H](CC(C)C)[C@@H](O)C[C@@H](C)C(=O)N[C@H](C(=O)NCC(C)C)C(C)C)n1 (some centres unmarked)")
"> 100 µM"
